All figures here come from patent US5284837A.

experiment: Oral bioavailability in monkey (Test III); type: in vivo, cynomologous monkeys; conditions: plasma AUC relative to AUC after intravenously given VSA 671, read-out: Oral bioavailability F of compound determined as VSA 671
parameter-measured: bioavailability (%)

compound	parameter-measured	reading-unit	numeric-result
Nc1nc2c(ncn2CC(CO)CCO)c(=O)[nH]1 (racemic) [VSA 671]	bioavailability	%	10

====

assay: Cellular toxicity, inhibition of F5000 cell multiplication (Test II); format: cell-based; details: human, f5000 cells, 500 μM
parameter-measured: inhibition at 48 h, 500 µM

compound	result
Nc1ncnc2c1ncn2CC(CO)CCO (stereo not shown)	25%
